Source: patent US20260184693A1

Examples of compounds with documented IC50 follow.
molecular target: human SLC6A19 (Homo sapiens, UniProt Q695T7); construct: expressed in transfected cells; assay: Example B2: 13C6,15N-isoleucine uptake, RapidFire mass spectrometry, in CHO cells with doxycycline-inducible expression of human SLC6A19 and TMEM27; type: cell-based; conditions: read-out: SLC6A19_RapidFire Uptake Assay IC50
Sequence (Q695T7 whole entry): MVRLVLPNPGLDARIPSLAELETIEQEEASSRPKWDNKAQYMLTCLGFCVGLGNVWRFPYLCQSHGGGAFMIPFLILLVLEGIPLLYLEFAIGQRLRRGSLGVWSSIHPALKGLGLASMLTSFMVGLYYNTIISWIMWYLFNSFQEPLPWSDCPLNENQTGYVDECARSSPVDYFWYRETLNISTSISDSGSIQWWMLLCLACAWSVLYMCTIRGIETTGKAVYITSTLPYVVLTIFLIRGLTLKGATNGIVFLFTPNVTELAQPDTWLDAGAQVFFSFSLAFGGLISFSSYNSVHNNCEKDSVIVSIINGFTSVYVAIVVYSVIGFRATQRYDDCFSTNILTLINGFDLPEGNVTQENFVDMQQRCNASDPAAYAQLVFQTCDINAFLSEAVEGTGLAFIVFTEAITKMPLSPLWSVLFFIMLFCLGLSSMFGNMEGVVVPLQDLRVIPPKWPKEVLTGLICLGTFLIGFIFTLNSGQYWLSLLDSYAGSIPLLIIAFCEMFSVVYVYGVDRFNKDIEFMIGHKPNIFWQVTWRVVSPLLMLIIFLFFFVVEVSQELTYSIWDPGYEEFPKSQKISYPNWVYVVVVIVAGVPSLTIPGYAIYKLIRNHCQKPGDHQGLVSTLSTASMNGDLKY
Sequence (Q9HBJ8 15-222 partner): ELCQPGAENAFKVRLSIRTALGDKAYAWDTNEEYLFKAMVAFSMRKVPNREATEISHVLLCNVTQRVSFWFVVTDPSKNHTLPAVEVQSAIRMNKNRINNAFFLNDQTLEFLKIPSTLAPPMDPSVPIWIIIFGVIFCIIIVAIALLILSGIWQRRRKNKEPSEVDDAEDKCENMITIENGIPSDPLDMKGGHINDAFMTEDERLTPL
Give your result in µM as a bare value.

// below: answered compounds
{"columns": ["Compound", "IC50 / µM"],
 "data": [
  ["CC(=O)N1CCC[C@@H](N(C)C(=O)NCc2cc3cc(C)c(C#N)cc3[nH]2)C1", 2.79],
  ["CN(C(=O)NCc1cc2cc(Cl)ccc2[nH]1)[C@@H]1CCCN(C(=O)CS(C)(=O)=O)C1", 8.61],
  ["CC(=O)NC(C)C(=O)N1CCC[C@@H](N(C)C(=O)NCc2cc3cc(Cl)ccc3[nH]2)C1 (some centres unmarked)", 4.08],
  ["CC(=O)N1CCC[C@@H](N(C)C(=O)NCc2cc3[nH]ccc3cc2Cl)C1", 8.03],
  ["CN(C(=O)NCc1cc2cc(Cl)ccc2[nH]1)[C@@H]1CCCN(C(=O)N2CCCC2)C1", 0.795]
]}

[ask] Sample CCNC(=O)NC(C)C(=O)N1CCC[C@@H](N(C)C(=O)NCc2cc3cc(Cl)ccc3[nH]2)C1 (some centres unmarked) — what was its IC50?
[reply] 1.81

[ask] Next compound: CN(C(=O)NCc1cc2cc(Cl)ccc2[nH]1)[C@@H]1CCCN(C(=O)c2cncnc2)C1
[reply] 8.96

[ask] Next compound: COCc1oncc1C(=O)N1CCC[C@@H](N(C)C(=O)NCc2cc3cc(Cl)ccc3[nH]2)C1
[reply] 13.5

###

molecular target: human SLC6A19 (Homo sapiens, UniProt Q695T7); construct: expressed in transfected cells; assay: Example B2: 13C6,15N-isoleucine uptake, RapidFire mass spectrometry, in CHO cells with doxycycline-inducible expression of human SLC6A19 and TMEM27; format: cell-based; details: read-out: SLC6A19_RapidFire Uptake Assay IC50
Rule: IC50 below 900 nM gives Criterion met. Equal to or above 900 nM gives Criterion not met.

{"columns": ["Molecule", "Class label"],
 "data": [
  ["Cc1ncc(C(=O)N2CCC[C@@H](N(C)C(=O)NCc3cc4cc(Cl)ccc4[nH]3)C2)o1 [Compound 38]", "Criterion met"],
  ["CN(C(=O)NCc1cc2cc(Cl)ccc2[nH]1)[C@@H]1CCCN(C(=O)C2CCOCC2)C1 [Compound 95]", "Criterion not met"],
  ["CN(C(=O)NCc1cc2cc(Cl)ccc2[nH]1)[C@@H]1CCCN(C(=O)C2CNC2)C1 [Compound 130]", "Criterion not met"],
  ["CN(C(=O)NCc1cc2cc(Cl)ccc2[nH]1)[C@@H]1CCCN(C(=O)CC(C)(C)O)C1 [Compound 80]", "Criterion not met"],
  ["COc1ccc2[nH]c(CNC(=O)N(C)[C@@H]3CCCN(C(C)=O)C3)cc2c1 [Compound 224]", "Criterion not met"]
]}

[ask] State whether 900 nM exceeds IC50 recorded for CN(C(=O)NCc1cc2cc(Cl)ccc2[nH]1)[C@@H]1CCCN(C(=O)c2ncc[nH]c2=O)C1 [Compound 37] .
[reply] Criterion not met

[ask] Next molecule: CCc1cc2[nH]c(CNC(=O)N(C)[C@@H]3CCCN(C(C)=O)C3)cc2cc1Cl [Compound 152]
[reply] Criterion met

[ask] Next molecule: CC(=O)N1CCC[C@@H](N(C)C(=O)NCc2cc3[nH]ccc3cc2F)C1 [Compound 184]
[reply] Criterion not met

[ask] Next molecule: CN(C(=O)NCc1cc2cc(Cl)ccc2[nH]1)[C@@H]1CCCN(C(=O)c2cn[nH]c2)C1 [Compound 11]
[reply] Criterion met

[ask] Next molecule: CN(C(=O)NCc1cc2cc(Cl)ccc2[nH]1)[C@@H]1CCCN(C(=O)CNC(N)=O)C1 [Compound 29]
[reply] Criterion not met
